Ref: patent US20220049017A1

study_target: T1, mouse PCSK9 (mouse, UniProt Q80W65 35-694, limits assumed)
T1 construct: also called mPCSK9; PCSK9 mouse
T1 sequence (Q80W65 35-694 limits assumed): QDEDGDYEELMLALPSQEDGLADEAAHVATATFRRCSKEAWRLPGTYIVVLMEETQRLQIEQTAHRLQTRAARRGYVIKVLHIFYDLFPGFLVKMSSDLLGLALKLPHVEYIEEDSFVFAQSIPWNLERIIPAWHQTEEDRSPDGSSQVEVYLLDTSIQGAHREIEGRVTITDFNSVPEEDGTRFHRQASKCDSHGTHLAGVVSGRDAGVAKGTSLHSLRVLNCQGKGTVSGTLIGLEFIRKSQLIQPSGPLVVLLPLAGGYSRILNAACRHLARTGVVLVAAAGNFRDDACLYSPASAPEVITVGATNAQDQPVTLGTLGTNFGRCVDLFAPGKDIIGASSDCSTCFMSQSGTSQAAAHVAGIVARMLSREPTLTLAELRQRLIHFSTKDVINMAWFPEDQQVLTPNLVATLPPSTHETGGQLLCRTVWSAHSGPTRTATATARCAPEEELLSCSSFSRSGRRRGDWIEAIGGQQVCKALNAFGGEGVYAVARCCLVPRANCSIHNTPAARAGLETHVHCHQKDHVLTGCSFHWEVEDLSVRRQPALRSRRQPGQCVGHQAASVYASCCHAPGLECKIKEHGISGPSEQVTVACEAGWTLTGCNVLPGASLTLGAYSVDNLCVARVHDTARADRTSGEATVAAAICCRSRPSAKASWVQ
method: ProteOn SPR, captured antibody, pH 5.8;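 also: antibodies captured on a GLC chip coated with anti-human Fc, rate constants from a 1:1 Langmuir fit of the sensorgrams, Kd derived from the fitted rates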

binder	kon [M⁻¹ s⁻¹]
CL-148489 (antibody, V domains shown, Human antibody with a kappa light chain) VH: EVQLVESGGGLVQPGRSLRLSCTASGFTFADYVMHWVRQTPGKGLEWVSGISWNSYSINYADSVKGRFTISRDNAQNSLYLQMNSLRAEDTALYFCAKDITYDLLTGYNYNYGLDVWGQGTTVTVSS VL: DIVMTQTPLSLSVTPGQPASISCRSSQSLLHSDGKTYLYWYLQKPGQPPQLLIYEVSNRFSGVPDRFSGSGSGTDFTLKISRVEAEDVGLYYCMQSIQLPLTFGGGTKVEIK	1.38e+06
